Target: Inositol-Requiring Enzyme 1 (IRE1) (Homo sapiens, UniProt O75460)
Sequence (O75460 547-977): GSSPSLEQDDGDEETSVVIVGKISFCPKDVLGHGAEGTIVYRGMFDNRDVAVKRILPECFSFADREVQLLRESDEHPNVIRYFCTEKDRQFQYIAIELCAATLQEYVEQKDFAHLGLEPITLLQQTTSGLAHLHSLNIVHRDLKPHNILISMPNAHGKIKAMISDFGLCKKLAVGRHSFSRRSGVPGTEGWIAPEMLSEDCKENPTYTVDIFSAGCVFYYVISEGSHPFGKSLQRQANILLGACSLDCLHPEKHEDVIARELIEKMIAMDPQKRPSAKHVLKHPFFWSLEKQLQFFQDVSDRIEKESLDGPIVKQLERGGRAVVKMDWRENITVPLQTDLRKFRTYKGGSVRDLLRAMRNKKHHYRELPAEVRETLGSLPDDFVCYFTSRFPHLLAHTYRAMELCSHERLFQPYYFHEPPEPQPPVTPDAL
Assay: biochemical
Parameters: gene ERN1; IRE1 cytoplasmic kinase-RNase construct; kinetic fluorescence RNA cleavage (FAM/BHQ XBP1 stem-loop) by IRE1 LKR Q470-L977
Conditions: RNase activation; activator; read-out: EC50 (RNase biochemical assay), activators
Observation type: pEC50
By convention, pEC50 is the negative base-10 log of a molar concentration.

q: Given Cc1ccc2c(N)cccc2c1Oc1ncccc1-c1ccnc(N[C@H]2CCCNC2)n1 , respond with its pEC50.
a: 7.51

====

Biological target: Inositol-Requiring Enzyme 1 (IRE1) (Homo sapiens)
Assay: biochemical
Set-up: gene ERN1; IRE1 cytoplasmic kinase-RNase construct; kinetic fluorescence RNA cleavage (FAM/BHQ XBP1 stem-loop) by IRE1 LKR Q470-L977
Conditions: RNase activation; read-out: EC50 (RNase biochemical assay), activators
This section presents compounds with their documented pEC50 values.
Scale explanation: pEC50 corresponds to minus log10 of a concentration expressed in moles per litre.

Take a look at these entries with their results.
COC(=O)Nc1cccc2c(Oc3ncccc3-c3ccnc(N[C@H]4CCCNC4)n3)c(C)ccc12 : 8.40
CCOC(=O)Nc1cccc2c(Oc3ncccc3-c3ccnc(N[C@H]4CCCNC4)n3)c(C)ccc12 : 8.05
CC#CC(=O)Nc1cccc2c(Oc3ncccc3-c3ccnc(N[C@H]4CCCNC4)n3)c(C)ccc12 : 8.15
O=c1cc(-c2n[nH]c3ncc(-c4c(F)cccc4F)cc23)nc(N2CCC(O)CC2)[nH]1 : 7.74

q: Provide measured pEC50 value, entry: C/C=C/C(=O)Nc1cccc2c(Oc3ncccc3-c3ccnc(N[C@H]4CCCNC4)n3)c(C)ccc12
a: 8.15
